Parameter: Dmax. Scope: all listed entries.
# Assay Target: IRAK-4 (Homo sapiens, UniProt Q9NWZ3)
# Protocol Notes: IRAK-4 ELISA, PBMC degradation
# Assay type: cell-based
# Design: endogenous in cells; host or cells: PBMC
# Reported Conditions: treated overnight

Previously resolved entries follow.
Compound	Dmax
CC(C)(C)Oc1nc2nn(C3CCN(CC4(F)CN(c5ccc6c(c5)C(=O)N(C5CCC(=O)NC5=O)C6=O)C4)CC3)cc2cc1NC(=O)c1cnn2cccnc12 (stereo not drawn) [Example 220]	80 to 90%
CC(C)Oc1cc2nn([C@H]3CC[C@H](NCC4(F)CN(c5ccc6c(c5)C(=O)N(C5CCC(=O)NC5=O)C6=O)C4)CC3)cc2cc1NC(=O)c1cnn2cccnc12 (stereo partly drawn) [Example 348]	≥ 90%

**Query** Which Dmax value is on record for CC(C)Oc1cc2c(cc1NC(=O)c1cnn3cccnc13)CN(C1CCN(CC3CCN(c4ccc5c(c4)C(=O)N(C4CCC(=O)NC4=O)C5=O)CC3)CC1)C2=O (stereo not drawn) [Example 1] ?
**Result** ≥ 90%

---

# Assay Target: IRAK-4 (Homo sapiens)
# Protocol Notes: IRAK-4 ELISA, PBMC degradation
# Type: cell-based
# Parameters: endogenous in cells; host or cells: PBMC
# Reported Conditions: treated overnight
Readout Name: DC50

Compound	DC50
O=C1CCC(N2C(=O)c3ccc(N4CC(F)(CN5CCC([C@H](F)CN6Cc7cc(NC(=O)c8cnn9cccnc89)c(N8CCOCC8)cc7C6=O)CC5)C4)cc3C2=O)C(=O)N1 (stereo partly drawn)	1 to 5 nM

**Query** Field request: DC50 | item: CC(C)Oc1cc2c(cc1NC(=O)c1cnn3cccnc13)CN(C1CCN(C3CCN(c4ccc5c(c4)CN(C4CCC(=O)NC4=O)C5=O)CC3)CC1)C2=O (stereo not drawn)
**Result** < 1 nM

**Query** May I ask what DC50 has been recorded for O=C1CCC(N2C(=O)c3ccc(N4CC(F)(CN5CCC(n6cc7cc(NC(=O)c8cnn9cccnc89)c(N8CCC(N9CCC9)CC8)cc7n6)CC5)C4)cc3C2=O)C(=O)N1 (stereo not drawn) ?
**Result** 5 to 10 nM

---

Measured DC50 of individual entries
# Assay Target: UniProtKB Q9NWZ3
# Protocol Notes: IRAK-4 ELISA, OCI-Ly10 degradation
# Assay type: cell-based
# Parameters: endogenous in cells
# Reported Conditions: OCI-Ly10 cells, treated overnight

Molecule	DC50
O=C1CCC(N2Cc3cc(N4CC(CN5CCC(N6Cc7cc(NC(=O)c8cnn9cccnc89)c(N8CCC(N9CCC9)CC8)cc7C6=O)CC5)C4)ccc3C2=O)C(=O)N1 (stereo not drawn)	10 to 50 nM
CC(C)Oc1cc2c(cc1NC(=O)c1cnn3cccnc13)CN(C1CCN(CC3(F)CN(c4ccc5c(c4)C(=O)N(C4CCC(=O)NC4=O)C5=O)C3)CC1)C2=O (stereo not drawn)	10 to 50 nM
CC(C)Oc1cc2c(cc1NC(=O)c1cnn3cccnc13)CN(C1CCN(C3CN(c4ccc5c(c4)C(=O)N(C4CCC(=O)NC4=O)C5=O)C3)CC1)C2=O (stereo not drawn)	< 10 nM
O=C1CCC(NC(=O)c2ccc(N3CC(CN4CCC(n5cc6cc(NC(=O)c7cnn8cc(Cl)cnc78)c(OCC7CC7)cc6n5)CC4)C3)cc2F)C(=O)N1 (stereo not drawn)	10 to 50 nM
O=C1CCC(N2Cc3cc(OCCOCCN4CCC(n5cc6cc(NC(=O)c7cnn8cccnc78)c(OCC7CC7)cc6n5)CC4)ccc3C2=O)C(=O)N1 (stereo not drawn)	< 10 nM

Moving on to the next molecule.
**Query** Item O=C1CCC(N2Cc3cc(CCN4CCC(n5cc6cc(NC(=O)c7cnn8cccnc78)c(OCC7CC7)cc6n5)CC4)ccc3C2=O)C(=O)N1 (stereo not drawn) has what recorded DC50?
**Result** < 10 nM

---

# Assay Target: IRAK-4 (Homo sapiens, UniProt Q9NWZ3)
# Protocol Notes: IRAK-4 ELISA, PBMC degradation
# Type: cell-based
# Set-up: endogenous in cells; host or cells: PBMC
# Reported Conditions: treated overnight
A collection of molecules and their measured Dmax

Example molecules with recorded Dmax:
Molecule	Assay Target	Dmax
CC(C)Oc1cc2nn(C3CCN(CCC4(F)CN(c5ccc6c(c5)C(=O)N(C5CCC(=O)NC5=O)C6=O)C4)CC3)cc2cc1NC(=O)c1cnn2cccnc12 (centres unmarked)	IRAK-4 (Homo sapiens, UniProt Q9NWZ3)	80 to 90%
CC(C)Oc1cc2c(cc1NC(=O)c1cnn3cccnc13)CN(C1CCN(C[C@H]3CN(c4ccc5c(c4)C(=O)N(C4CCC(=O)NC4=O)C5=O)CCO3)CC1)C2=O (some centres unmarked)	IRAK-4 (Homo sapiens, UniProt Q9NWZ3)	≥ 90%
CC(C)Oc1cc2nn(C3CCN(CC4(F)CN(c5ccc6c(c5)C(=O)N(C5CCC(=O)NC5=O)C6=O)C4)CC3)cc2cc1NC(=O)c1cnn2cccnc12 (centres unmarked)	IRAK-4 (Homo sapiens, UniProt Q9NWZ3)	≥ 90%

**Query** I'd like to know its Dmax. The molecule in question is O=C1CCC(N2C(=O)c3ccc(N4CC(F)(CN5CCC(n6cc7cc(NC(=O)c8cnn9cccnc89)c(OCC8CC8)cc7n6)CC5)C4)cc3C2=O)C(=O)N1 (centres unmarked)
**Result** ≥ 90%

**Query** I am curious: what Dmax value has been reported for O=C1CCC(N2C(=O)c3cccc(N4CC5(CCCN(C6CCC(n7cc8cc(NC(=O)c9cnn%10cccnc9%10)c(OCC9CC9)cc8n7)CC6)C5)C4)c3C2=O)C(=O)N1 (centres unmarked) ?
**Result** 70 to 80%

---

# Assay Target: UniProtKB Q9NWZ3
# Sequence (Q9NWZ3 1-460): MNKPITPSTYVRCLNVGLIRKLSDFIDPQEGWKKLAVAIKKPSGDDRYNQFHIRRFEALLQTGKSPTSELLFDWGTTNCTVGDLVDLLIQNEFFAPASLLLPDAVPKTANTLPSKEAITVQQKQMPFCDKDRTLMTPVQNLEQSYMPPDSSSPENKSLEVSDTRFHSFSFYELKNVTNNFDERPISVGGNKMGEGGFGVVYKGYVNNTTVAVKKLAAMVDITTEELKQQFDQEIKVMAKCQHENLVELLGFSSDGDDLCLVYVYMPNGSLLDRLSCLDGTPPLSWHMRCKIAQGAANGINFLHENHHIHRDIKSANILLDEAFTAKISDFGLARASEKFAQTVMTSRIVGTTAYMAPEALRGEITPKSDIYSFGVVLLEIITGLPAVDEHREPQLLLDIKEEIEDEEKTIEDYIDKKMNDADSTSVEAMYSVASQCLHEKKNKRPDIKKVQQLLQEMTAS
# Protocol Notes: IRAK-4 ELISA, PBMC degradation
# Assay type: cell-based
# Design: endogenous in cells; host or cells: PBMC
# Reported Conditions: treated overnight
Readout Name: DC50

Would you please look over these solved cases?
Compound	Assay Target	Result
O=C1CCC(NC(=O)c2ccc(O[C@H]3C[C@H](N[C@H]4CC[C@H](n5cc6cc(NC(=O)c7cnn8cccnc78)c(OCC7CC7)cc6n5)CC4)C3)cc2F)C(=O)N1 (stereo partly drawn)	UniProtKB Q9NWZ3	1 to 5 nM
CN(CC1(F)CN(c2ccc3c(c2)C(=O)N(C2CCC(=O)NC2=O)C3=O)C1)[C@H]1CC[C@H](n2cc3cc(NC(=O)c4cnn5cccnc45)c(OCC4CC4)cc3n2)CC1 (stereo partly drawn)	UniProtKB Q9NWZ3	1 to 5 nM
O=C1CCC(N2Cc3cc(N4CC(CN5CCC(n6cc7cc(NC(=O)c8cnn9cccnc89)c(C8CC8)cc7n6)CC5)C4)ccc3C2=O)C(=O)N1 (stereo not drawn)	UniProtKB Q9NWZ3	< 1 nM
CC(C)Oc1cc2nn(C3CCN(CC4(F)CN(c5ccc6c(c5)C(=O)N(C5CCC(=O)NC5=O)C6=O)C4)CC3)cc2cc1NC(=O)c1cnn2ccc(N3C[C@H]4C[C@@H]3CO4)nc12 (stereo partly drawn)	UniProtKB Q9NWZ3	5 to 10 nM
O=C1CCC(N2C(=O)c3ccc(N4CCC(CN5CCC(N6Cc7cc(NC(=O)c8cnn9cccnc89)c(OCC8CC8)cc7C6=O)CC5)CC4)cc3C2=O)C(=O)N1 (stereo not drawn)	UniProtKB Q9NWZ3	< 1 nM
O=C1CCC(N2C(=O)c3ccc(N4CCC(CN5CCC(n6cc7cc(NC(=O)c8cnn9cccnc89)c(OCC(F)F)cc7n6)CC5)CC4)cc3C2=O)C(=O)N1 (stereo not drawn)	UniProtKB Q9NWZ3	< 1 nM
O=C1CCC(N2Cc3c(ccc(N4CCC(CN5CCC(n6cc7cc(NC(=O)c8cnn9cccnc89)c(OCC8CC8)cc7n6)CC5)CC4)c3F)C2=O)C(=O)N1 (stereo not drawn)	UniProtKB Q9NWZ3	< 1 nM
CC(C)Oc1cc2c(cc1NC(=O)c1cnn3cccnc13)CN([C@H]1CC[C@H](N3CC4(CN(c5ccc6c(c5)CN(C5CCC(=O)NC5=O)C6=O)C4)C3)CC1)C2=O (stereo partly drawn)	UniProtKB Q9NWZ3	< 1 nM

**Query** For CC(C)Oc1cc2c(cc1NC(=O)c1cnn3cccnc13)CN([C@H]1CC[C@H](N3CC4(CN(c5ccc6c(c5)C(=O)N(C5CCC(=O)NC5=O)C6=O)C4)C3)CC1)C2=O (stereo partly drawn) [Example 68] , what is its reported DC50?
**Result** < 1 nM

**Query** Sample COc1cc2nn(C3CCN(CC4(F)CN(c5ccc6c(c5)CN(C5CCC(=O)NC5=O)C6=O)C4)CC3)cc2cc1NC(=O)c1cnn2cccnc12 (stereo not drawn) — what was its DC50?
**Result** < 1 nM

**Query** Report DC50 for CN(C1CN(c2ccc3c(c2F)CN(C2CCC(=O)NC2=O)C3=O)C1)[C@H]1CC[C@H](n2cc3cc(NC(=O)c4cnn5cccnc45)c(OCC(F)F)cc3n2)CC1 (stereo partly drawn) please.
**Result** < 1 nM

**Query** So what does the record say about DC50 for O=C1CCC(N2Cc3cc(N4CC(N5CCC(N6Cc7cc(NC(=O)c8cnn9cccnc89)c(N8CCOCC8)nc7C6=O)CC5)C4)ccc3C2=O)C(=O)N1 (stereo not drawn) ?
**Result** ≥ 10 nM

**Query** Please report the recorded DC50 for COc1cc(N2CC(F)(CN3CCC(n4cc5cc(NC(=O)c6cnn7cccnc67)c(OCC6CC6)cc5n4)CC3)C2)cc2c1C(=O)N(C1CCC(=O)NC1=O)C2=O (stereo not drawn) .
**Result** < 1 nM

**Query** Can you look up the measured DC50 of O=C1CCC(N2C(=O)c3ccc(N4CC(F)(CN5CCC(n6cc7cc(NC(=O)c8cnn9ccc(N%10C[C@H]%11C[C@@H]%10CO%11)nc89)c(OCC8CC8)cc7n6)CC5)C4)cc3C2=O)C(=O)N1 (stereo partly drawn) for me?
**Result** 5 to 10 nM

**Query** Entry under review: O=C1CCC(N2C(=O)c3ccc(N4CC(F)(CN5CCC(N6Cc7cc(NC(=O)c8cnn9cccnc89)c(OCC(F)F)cc7C6=O)CC5)C4)cc3C2=O)C(=O)N1 (stereo not drawn) . Reported DC50?
**Result** 1 to 5 nM
